B1: NEK8 (parent)
chain: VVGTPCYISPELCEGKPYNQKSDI

Variants of: B1
Assay: protein stability index of a GFP-peptide fusion (GPS, HEK-293T) (PSI 1-6); higher = more stable;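 note: lentivirally expressed fusions sorted by FACS into six bins by GFP to DsRed ratio, PSI derived from sequencing read proportions per bin multiplied by bin number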
Conditions: c terminus: a fixed tail appended
Could you please report measured protein stability index for the items listed next?
Numbers only.

{"SEQ_TEXT": "VVGTPCYISPELCELKPYNQKSDI [G15L]", "PARAMETER_MEASURED": "protein stability index", "MEAS_VALUE": 2.19}
{"SEQ_TEXT": "VVGTPCYISPELCEGKPYNQKKDI [S22K]", "PARAMETER_MEASURED": "protein stability index", "MEAS_VALUE": 3.12}
{"SEQ_TEXT": "VVGTPCYISPELCEGEPYNQKSDI [K16E]", "PARAMETER_MEASURED": "protein stability index", "MEAS_VALUE": 3.05}

Parameters: items (list). Returns: protein stability index for each item.
1. VVGTPCYISPELEEGKPYNQKSDI [C13E]
2. VVGTPCYISPEMCEGKPYNQKSDI [L12M]
3. VVGTPCYITPELCEGKPYNQKSDI [S9T]

Resp:
1. 2.98
2. 2.76
3. 2.61

List reported protein stability index for each of these variants:
1. VVGTPCYISPCLCEGKPYNQKSDI [E11C]
2. VVGTPYYISPELCEGKPYNQKSDI [C6Y]
3. VVQTPCYISPELCEGKPYNQKSDI [G3Q]
4. VVGTPCYISSELCEGKPYNQKSDI [P10S]
5. VVGTFCYISPELCEGKPYNQKSDI [P5F]

Resp:
[1.68, 2.02, 2.5, 3.39, 1.16]

Dear colleague, could you please provide protein stability index for the variants listed below?
1. VVGTPCYISPELCEGKPYNQDSDI [K21D]
2. VVGTPCYISPEPCEGKPYNQKSDI [L12P]
3. VVGTPCYISPELCEGKDYNQKSDI [P17D]
4. VVGTPCYISPELCCGKPYNQKSDI [E14C]
5. VVGRPCYISPELCEGKPYNQKSDI [T4R]
6. VVGTPCYISPELCEGKPYQQKSDI [N19Q]
7. VVGTPCYISPELCEGKPYNQKSGI [D23G]

Resp:
[2.93, 3.6, 3.05, 2.73, 2.79, 3.19, 1.82]

Here are 4 variants. What values of protein stability index were reported for them?
1. VVGTPCYILPELCEGKPYNQKSDI [S9L]
2. VVGTPCYISPELCEGKPYMQKSDI [N19M]
3. VVGTPCYLSPELCEGKPYNQKSDI [I8L]
4. VVGTPCYISPELCEGKPYNTKSDI [Q20T]

Resp:
1. 1.68
2. 2.88
3. 3.48
4. 2.48

Count: 3. Required value per item: protein stability index.
1. VVGTCCYISPELCEGKPYNQKSDI [P5C]
2. VVGTPCTISPELCEGKPYNQKSDI [Y7T]
3. VVGTPGYISPELCEGKPYNQKSDI [C6G]

Resp:
[2.56, 4.36, 3.39]

Need protein stability index for each of these variants.
1. VVGTPCYISPELCEGKYYNQKSDI [P17Y]
2. VVGTPCYISPELCEGKPYNAKSDI [Q20A]
3. VWGTPCYISPELCEGKPYNQKSDI [V2W]

Resp:
[2.27, 2.44, 2.8]

Attribution: the supplement of paper PMC10567573
